I'd appreciate it if you could supply PER2::LUC luminescence values for the items below.
Test system: mPer2Luc MEF
Assay: PER2::LUC luminescence relative to vehicle control (fold of vehicle); higher = higher PER2::LUC reporter signal
Conditions: time after treatment 30 h; 10 µM
Whole data set: some 5,300 compounds, median “PER2::LUC luminescence relative to vehicle control” near 0.96, cut for the highest 2% near 1.3. Only a selection was taken, and the highest values are over-represented in it overall.
Enter a number only.

Return reported PER2::LUC luminescence; argument: Cc1ccc(O)c(N=Nc2ccccc2)n1
0.998

Then this compound: CC(=O)Oc1ccc(O)cc1
1.01

Then this compound: O=C(O)/C=C/c1ccc(O)c(O)c1/C(=C\c1ccc(O)c(O)c1)C(=O)O
1.02

Then this compound: COc1ccccc1-c1nc(-c2ccccn2)no1
0.943

Then this compound: O=c1ccn([C@@H]2O[C@H](CO)[C@@H](O)[C@H]2O)c(=O)[nH]1
1.03

Then this compound: O=c1cnn([C@@H]2O[C@H](CO)[C@@H](O)[C@H]2O)c(=O)[nH]1
1.5

Then this compound: Oc1cc(O)cc(/C=C/c2ccc(O)c(O)c2)c1
1.09

Then this compound: CN(Cc1ccccc1)c1ccc2cc(C(=O)O)c(=O)oc2c1
0.948

Then this compound: COc1cc2ncnc(N(C)c3cccc(Br)c3)c2cc1OC
0.741

Then this compound: CCCCC/C=C\C[C@@H](O)/C=C/c1cccc(C[C@@H](O)CCCCO)n1
0.841

Then this compound: NC(=O)c1cccc(-c2cccc(OC(=O)NC3CCCCC3)c2)c1
1.36
